Tested on: carrageenan induced paw edema
Assay: Anti-inflammatory activity: acute carrageenan induced paw edema in rats
Assay type: in vivo, Wister rats
Conditions: 1 h; 10 mg kg^−1 indomethacin mol equivalent, intraperitoneally
metric: % inhibition of edema (%)

compoundSmiles	metric	recordedNumber
COc1cc(/C=C/C(=O)CC(=O)/C=C/c2ccc(OC(=O)CCN)c(OC)c2)ccc1OC(=O)CCN.Cl.Cl	% inhibition of edema	69
COc1cc(/C=C/C(=O)CC(=O)/C=C/c2ccc(OC(=O)[C@H](C)NC(=O)OCc3ccccc3)c(OC)c2)ccc1OC(=O)[C@H](C)NC(=O)OCc1ccccc1	% inhibition of edema	56
COc1cc(/C=C/C(=O)CC(=O)/C=C/c2ccc(OC(=O)[C@H](Cc3ccccc3)NC(=O)OC(C)(C)C)c(OC)c2)ccc1OC(=O)[C@H](Cc1ccccc1)NC(=O)OC(C)(C)C	% inhibition of edema	39
COc1cc(/C=C/C(=O)CC(=O)/C=C/c2ccc(OC(=O)[C@H](CCSC)NC(=O)OCC3c4ccccc4-c4ccccc43)c(OC)c2)ccc1OC(=O)[C@H](CCSC)NC(=O)OCC1c2ccccc2-c2ccccc21	% inhibition of edema	46
COc1cc(/C=C/C(=O)CC(=O)/C=C/c2ccc(OC(=O)[C@H](CCSC)NC(=O)OC(C)(C)C)c(OC)c2)ccc1OC(=O)[C@H](CCSC)NC(=O)OC(C)(C)C	% inhibition of edema	34
COc1cc(/C=C/C(=O)CC(=O)/C=C/c2ccc(OC(=O)[C@H](C)NC(=O)OCC3c4ccccc4-c4ccccc43)c(OC)c2)ccc1OC(=O)[C@H](C)NC(=O)OCC1c2ccccc2-c2ccccc21	% inhibition of edema	12

* * *

Test system: MCF7 (breast) carcinoma cell line
Experiment: Anti-tumor properties, MTT
Type: cell-based
Conditions: Homo sapiens, MCF7; read-out: IC50 (μM) MCF7 (breast)
Procedure: Anti-tumor properties of curcumin conjugates were evaluated. […] The absorbance was then measured at 595 nm with a reference wavelength of 620 nm. Data were collected as mean values for experiments performed in triplicates for each compound which had been measured by MTT assay. The percentage of cell survival was calculated according to equation (4): […] The IC50 was determined using Graph-Pad PRISM version-5 software. […]
Please respond with condition met when measured IC50 is strictly beneath 10 µM, and with condition not met in all other cases.

molecule	answerLabel
COc1cc(/C=C/C(=O)CC(=O)/C=C/c2ccc(OC(=O)CNC(=O)OC(C)(C)C)c(OC)c2)ccc1OC(=O)CNC(=O)OC(C)(C)C	condition not met
COc1cc(/C=C/C(=O)CC(=O)/C=C/c2ccc(OC(=O)[C@@H](CCSC)NC(=O)OC(C)(C)C)c(OC)c2)ccc1OC(=O)[C@@H](CCSC)NC(=O)OC(C)(C)C	condition not met
COc1cc(/C=C/C(=O)CC(=O)/C=C/c2ccc(OC(=O)CCNC(=O)OC(C)(C)C)c(OC)c2)ccc1OC(=O)CCNC(=O)OC(C)(C)C	condition not met
COc1cc(/C=C/C(=O)CC(=O)/C=C/c2ccc(OC(=O)CN)c(OC)c2)ccc1OC(=O)CN.Cl.Cl [HCl-Gly-Cur]	condition met
COc1cc(/C=C/C(=O)CC(=O)/C=C/c2ccc(OC(=O)[C@@H](C)N)c(OC)c2)ccc1OC(=O)[C@@H](C)N.Cl.Cl [HCl-D-Ala-Cur]	condition not met
COc1cc(/C=C/C(=O)CC(=O)/C=C/c2ccc(OC(=O)[C@@H](N)CCSC)c(OC)c2)ccc1OC(=O)[C@@H](N)CCSC.Cl.Cl [HCl-L-Met-Cur]	condition not met
COc1cc(/C=C/C(=O)CC(=O)/C=C/c2ccc(OC(=O)[C@@H](C)NC(=O)OCc3ccccc3)c(OC)c2)ccc1OC(=O)[C@@H](C)NC(=O)OCc1ccccc1	condition not met
COc1cc(/C=C/C(=O)CC(=O)/C=C/c2ccc(OC(=O)[C@@H](CCSC)NC(=O)OCc3ccccc3)c(OC)c2)ccc1OC(=O)[C@@H](CCSC)NC(=O)OCc1ccccc1	condition not met
COc1cc(/C=C/C(=O)CC(=O)/C=C/c2ccc(OC(=O)[C@@H](N)CCC(N)=O)c(OC)c2)ccc1OC(=O)[C@@H](N)CCC(N)=O.Cl.Cl [HCl-L-Gln-Cur]	condition met
COc1cc(/C=C/C(=O)CC(=O)/C=C/c2ccc(OC(=O)[C@H](Cc3ccccc3)NC(=O)OC(C)(C)C)c(OC)c2)ccc1OC(=O)[C@H](Cc1ccccc1)NC(=O)OC(C)(C)C	condition not met
